System: P-gp
Experiment: Substrate activity at rat P-gp assessed as efflux ratio
Format: ADME
Conditions: not told
Reported efflux ratio values follow for various compounds
Reply: number alone, nothing else.

Look over these answered cases.
| smiles str | recorded number |
| --- | --- |
| Cc1nc2c(c(CO)nn2[C@@H](C)c2ccc(C(F)(F)F)cc2)c(=O)[nH]1 | 3 |
| C[C@@H](c1ccc(C(F)(F)F)cc1)n1nc(CO)c2c(=O)[nH]c(O)nc21 | 0.38 |
| COc1ccc(Cc2nc3c(c(CO)nn3[C@@H](C)c3ccc(C(F)(F)F)cc3)c(=O)[nH]2)cc1OC | 35 |

// next entry
Prompt: Item C[C@@H](c1ccc(C(F)(F)F)cc1)n1nc(CC(F)(F)F)c2c(=O)[nH]c(O)nc21 : provide efflux ratio
Response: 19

---

Assay: Intrinsic clearance in human liver microsomes
Format: ADME, microsome
Conditions: read-out: CLH
quantity kind: CLint scaled

Prompt: Item Cc1nc2c(c(CO)nn2[C@@H](C)c2ccc(C(F)(F)F)cc2)c(=O)[nH]1 : provide CLint scaled
Response: < 6.2 mL/min/kg

---

Assay: Clearance in rat
Type: ADME, organism-based
Conditions: in vivo
quantity kind: clearance (mL/min/kg)
Response body: numeric value in mL/min/kg, unit text excluded.

Prompt: Item Cc1nc2c(c(CO)nn2[C@@H](C)c2ccc(C(F)(F)F)cc2)c(=O)[nH]1 : provide clearance
Response: 5.6

---

Experiment: Volume of distribution at steady state in rat
Assay type: ADME, organism-based
Conditions: in vivo, read-out: Vdss
quantity kind: Vd

Prompt: Item Cc1nc2c(c(CO)nn2[C@@H](C)c2ccc(C(F)(F)F)cc2)c(=O)[nH]1 : provide Vd
Response: 1.4 L/kg

---

Experiment: Lipophilicity, log D of the compound by HPLC method
Assay type: physicochemical
quantity kind: logD

Look over these answered cases.
| smiles str | logD |
| --- | --- |
| C[C@@H](c1ccc(C(F)(F)F)cc1)n1nc(CO)c2c(=O)[nH]c(O)nc21 | 1.1 |
| C[C@@H](c1ccc(C(F)(F)F)cc1)n1nc(CC(F)(F)F)c2c(=O)[nH]c(O)nc21 | 1.8 |
| Cc1nc2c(c(C)nn2[C@@H](C)c2ccc(C(F)(F)F)cc2)c(=O)[nH]1 | 2.7 |

// next entry
Prompt: Item Cc1nc2c(c(CO)nn2[C@@H](C)c2ccc(C(F)(F)F)cc2)c(=O)[nH]1 : provide logD
Response: 2.2 to 2.7

---

Test: Clearance in rhesus monkey
Format: ADME, organism-based, Macaca mulatta
Conditions: in vivo
quantity kind: clearance (mL/min/kg)
Response body: numeric value in mL/min/kg, unit text excluded.

Prompt: Item Cc1nc2c(c(CO)nn2[C@@H](C)c2ccc(C(F)(F)F)cc2)c(=O)[nH]1 : provide clearance
Response: 2

---

Experiment: Volume of distribution at steady state in rhesus monkey
Format: ADME, organism-based, Macaca mulatta
Conditions: in vivo, read-out: Vdss
quantity kind: Vd (L/kg)
Response body: numeric value in L/kg, unit text excluded.

Prompt: Item Cc1nc2c(c(CO)nn2[C@@H](C)c2ccc(C(F)(F)F)cc2)c(=O)[nH]1 : provide Vd
Response: 0.88

---

Test: Protein binding in rat plasma
Assay type: ADME, cell-free
Conditions: read-out: PPB (converted)
quantity kind: fraction unbound

Prompt: Item Cc1nc2c(c(CO)nn2[C@@H](C)c2ccc(C(F)(F)F)cc2)c(=O)[nH]1 : provide fraction unbound
Response: 0.15

---

Assay: Selectivity ratio of IC50 for human GST-tagged PDE11A4 expressed in insect cells to IC50 for rhesus monkey brain PDE2A3 expressed in human AD293 cells
quantity kind: Ratio IC50

| smiles str | Ratio IC50 |
| --- | --- |
| C[C@@H](c1ccc(C(F)(F)F)cc1)n1nc(CO)c2c(=O)[nH]c(O)nc21 | > 1000 |
| Cc1nc2c(c(CO)nn2[C@@H](C)c2ccc(C(F)(F)F)cc2)c(=O)[nH]1 | > 500 |

Prompt: Item C[C@@H](c1ccc(C(F)(F)F)cc1)n1nc(CC(F)(F)F)c2c(=O)[nH]c(O)nc21 : provide Ratio IC50
Response: > 12000

Prompt: Item Cc1nc2c(c(C)nn2[C@@H](C)c2ccc(C(F)(F)F)cc2)c(=O)[nH]1 : provide Ratio IC50
Response: 101 to 500

---

Tested on: P-gp
Assay: Substrate activity at P-gp (unknown origin) assessed as apparent permeability
Type: ADME
Details: human, not told
Reported Papp values follow for various compounds
Response body: numeric value in ×10⁻⁶ cm/s, unit text excluded.

| smiles str | tested system | measurement unit | Papp |
| --- | --- | --- | --- |
| C[C@@H](c1ccc(C(F)(F)F)cc1)n1nc(CO)c2c(=O)[nH]c(O)nc21 | P-gp | ×10⁻⁶ cm/s | 41 |

// next entry
Prompt: Item Cc1nc2c(c(CO)nn2[C@@H](C)c2ccc(C(F)(F)F)cc2)c(=O)[nH]1 : provide Papp
Response: 37

---

Experiment: Half life in rat
Assay type: ADME, organism-based
Settings: in vivo
quantity kind: half-life (h)
Response body: numeric value in h, unit text excluded.

Prompt: Item Cc1nc2c(c(CO)nn2[C@@H](C)c2ccc(C(F)(F)F)cc2)c(=O)[nH]1 : provide half-life
Response: 2.9

---

Reported log10 of IC50 values follow for various compounds
Experiment: Inhibition of rhesus monkey brain PDE2A3 expressed in human AD293 cells using FAM-labeled cAMP/cGMP as substrate incubated for 60 mins measured after 1 hr by IMAP based fluorescence polarization assay
A value of 2 here means IC50 of 100 in nM, since values are log10.

Look over these answered cases.
| smiles str | quantity kind | recorded number |
| --- | --- | --- |
| COc1ccc(Cc2nc3c(c(CO)nn3[C@@H](C)c3ccc(C(F)(F)F)cc3)c(=O)[nH]2)cc1OC | log10 of IC50 | -0.05 |
| C[C@@H](c1ccc(C(F)(F)F)cc1)n1nc(CF)c2c(=O)[nH]c(O)nc21 | log10 of IC50 | 0.30 |
| Cc1nc2c(c(CO)nn2[C@H](c2ccc(C(F)(F)F)cc2)C(C)(C)C)c(=O)[nH]1 | log10 of IC50 | 0.95 |
| Cc1nc2c(c(C)nn2[C@@H](C)c2ccc(C(F)(F)F)cc2)c(=O)[nH]1 | log10 of IC50 | 1.36 |

Prompt: Item Cc1nc2c(c(CO)nn2[C@@H](C)c2ccc(C(F)(F)F)cc2)c(=O)[nH]1 : provide log10 of IC50
Response: 0.30

Prompt: Item Cc1nc2c(c(CO)nn2[C@@H](C)c2ccc(C(F)(F)F)c(F)c2)c(=O)[nH]1 : provide log10 of IC50
Response: 0.11

Prompt: Item Cc1nc2c(c(CO)nn2[C@H](C)c2ccc(C(F)(F)F)cc2)c(=O)[nH]1 : provide log10 of IC50
Response: 2.33

Prompt: Item C[C@@H](c1ccc(C(F)(F)F)cc1)n1nc(CO)c2c(=O)[nH]c(O)nc21 : provide log10 of IC50
Response: 1.15

Prompt: Item C[C@@H](c1ccc(C(F)(F)F)cc1)n1nc(CC(F)(F)F)c2c(=O)[nH]c(O)nc21 : provide log10 of IC50
Response: -0.02

---

Assay: Oral bioavailability in rhesus monkey
Assay type: ADME, organism-based, Macaca mulatta
Conditions: in vivo
quantity kind: bioavailability (%)
Response body: numeric value in %, unit text excluded.

Prompt: Item Cc1nc2c(c(CO)nn2[C@@H](C)c2ccc(C(F)(F)F)cc2)c(=O)[nH]1 : provide bioavailability
Response: 100

---

Assay: Half life in rhesus monkey
Type: ADME, organism-based, Macaca mulatta
Settings: in vivo
quantity kind: half-life (h)
Response body: numeric value in h, unit text excluded.

Prompt: Item Cc1nc2c(c(CO)nn2[C@@H](C)c2ccc(C(F)(F)F)cc2)c(=O)[nH]1 : provide half-life
Response: 5.2

---

System: P-gp
Assay: Substrate activity at human P-gp assessed as efflux ratio
Assay type: ADME
Settings: not told
quantity kind: efflux ratio
Reply: number alone, nothing else.

| smiles str | efflux ratio |
| --- | --- |
| C[C@@H](c1ccc(C(F)(F)F)cc1)n1nc(CC(F)(F)F)c2c(=O)[nH]c(O)nc21 | 4.8 |
| COc1ccc(Cc2nc3c(c(CO)nn3[C@@H](C)c3ccc(C(F)(F)F)cc3)c(=O)[nH]2)cc1OC | 11 |
| C[C@@H](c1ccc(C(F)(F)F)cc1)n1nc(CO)c2c(=O)[nH]c(O)nc21 | 0.32 |

// next entry
Prompt: Under P-gp: report efflux ratio of Cc1nc2c(c(CO)nn2[C@@H](C)c2ccc(C(F)(F)F)cc2)c(=O)[nH]1 .
Response: 1

Reference for the values: ChEMBL document CHEMBL4196160
